Numbers sourced from PubChem BioAssay (NCI).

Exercise: state measured GI50 for each of the molecules provided.
# Test system: MOLT-4 leukemia
# measurement_description: NCI tumour cell line growth inhibition, 48 h

Before answering, review these 4 worked examples.
COc1ccc(C2=C(c3cn(C)c4ccccc34)C(=O)OC2)cc1OC : 2.8 µM
CC(C)OP(=O)(OC(C)C)c1ncc(-c2ccc(C(F)(F)F)cc2)c(NC2CCCCCC2)n1 : > 10 µM
COC(=O)C1=C(C(=O)OC)SC(=C(Cl)C(=S)Oc2ccccc2N)S1 : 25 µM
COc1cc(-c2nn(-c3ccc(NC(=O)NCCNS(=O)(=O)c4ccc(F)cc4)cc3)cc2-c2ccncc2)ccc1Cl : 0.583 µM

Please give GI50 for each item listed below.
1. NCCNC1=CC(=O)c2nc3ccccc3c3ccnc1c23
2. COC(=O)[C@@]1(C)CCC[C@]2(C)[C@H]3Cc4occc4[C@H](C)[C@@H]3CC[C@@]12O
3. N#C/C(=C1C=C/C(=N/O)C(Cl)=C/1)c1ccc(Cl)cc1
4. CCN(Cc1ccccn1)c1ccc(CO)c(Cl)c1
5. C=CC(C)c1cccc(C=O)c1O (stereo not given)
6. NC(=O)c1c(Br)n(C2OC(CO)C(O)C2O)c2ncnc(N)c12 (stereo not given)

Return:
3.39 µM
17.3 µM
2.35 µM
> 100 µM
8.45 µM
0.36 µM

###

# Test system: UO-31 renal
# measurement_description: NCI tumour cell line growth inhibition, 48 h
Note to self: values exactly at 3 µM are Met. So TGI at or above 3 µM is Met, below is Not met.

The examples below pair each entry with its known result.
Nc1nc2ccc(NCc3ccc(C(=O)NC(CCC(=O)O)C(=O)O)cc3)cc2c(=O)[nH]1 (stereo not given) : Met
COC(=O)/C=C/CC(=O)NS(C)(=O)=O : Met
CCn1nc(-c2ccc(C(=O)OC)cc2)nc2c(=O)n(C)c(=O)nc1-2 : Not met
O=S(=O)(Nc1ccc(Cl)c(F)c1)c1ccc(-c2cnc(C3CC3)o2)cc1 : Met
CCOC(=O)C(=Cc1ccccc1Cl)C(=O)OCC : Met
CC(=O)OCCn1c(Cc2ccc(C)cc2)nn(C(C)=O)c1=O : Met
Cc1ccc(C2C3Cc4ccccc4C3=NN2c2ccc(S(=O)(=O)NC(=O)NC3CCCCC3)cc2)cc1 (stereo not given) : Met
COc1cc(COC(=O)N2CSCC2C(=O)O)c([N+](=O)[O-])cc1OC (stereo not given) : Met

Enquiry: Could you tell me if the measured TGI of `CC(=O)/C(=C/n1ccc(=O)[nH]c1=S)C(=O)Nc1ccccc1C` reaches 3 µM or more?
Return: Met

Enquiry: Could you tell me if the measured TGI of `Cc1nc2c(o1)C(=Nc1ccccc1)c1ccccc1C2=Nc1ccccc1` reaches 3 µM or more?
Return: Met

Enquiry: Could you tell me if the measured TGI of `CC(=O)Nc1ccccc1S(=O)(=O)c1ccccc1` reaches 3 µM or more?
Return: Met

Enquiry: Could you tell me if the measured TGI of C=CC[C@@]1(OC(C)=O)C(=O)C(=O)OC1C1COC(C)(C)O1 (stereo not given in full) reaches 3 µM or more?
Return: Met

Enquiry: Could you tell me if the measured TGI of `c1ccc2nc(-c3ccc4c(c3)OCO4)ccc2c1` reaches 3 µM or more?
Return: Met

Enquiry: Could you tell me if the measured TGI of `S=c1oc(CCCCCCCCc2nn(CNc3ccccc3)c(=S)o2)nn1CNc1ccccc1` reaches 3 µM or more?
Return: Met

Enquiry: Could you tell me if the measured TGI of `CCOC(=O)C1=C(C)NC(C)=C(C(=O)OCC)C1c1ccc(Cl)cc1` reaches 3 µM or more?
Return: Met

Enquiry: Could you tell me if the measured TGI of COc1ccc(Cc2c(-c3ccc(C)cc3)n[nH]c(=O)c2C2C(=O)N(c3ccccc3)N=C2c2ccccc2)cc1 (stereo not given) reaches 3 µM or more?
Return: Met

Enquiry: Could you tell me if the measured TGI of C/C=C/C1=CN2C(=O)c3cc(OC4OC(C)C(NC)C(C)(O)C4O)c(C)cc3N=C[C@@H]2C1 (stereo not given in full) reaches 3 µM or more?
Return: Not met

Enquiry: Could you tell me if the measured TGI of `O=C(Nc1ccc(F)cc1F)c1cc(F)ccc1O` reaches 3 µM or more?
Return: Met

Enquiry: Could you tell me if the measured TGI of `C=C1C(=O)O[C@@H]2[C@@H]3O[C@@H](C[C@@H]13)[C@](C)(O)CC/C=C(\C)CCC[C@H]2C` reaches 3 µM or more?
Return: Not met

Enquiry: Could you tell me if the measured TGI of `COC(=O)C1=C(C(=O)OC)SC(=C(Cl)C(=S)Oc2ccccc2N)S1` reaches 3 µM or more?
Return: Met

###

# System: SK-OV-3 ovarian
# measurement_description: NCI tumour cell line growth inhibition, 48 h
observed_property: GI50

Before answering, review these 5 worked examples.
CCCC(=O)OCC1OC(n2cnc3c(=S)nc(N)[nH]c32)C(OC(=O)CCC)C1OC(=O)CCC (stereo unspecified) : 1.56 µM
C=C1C(=O)O[C@@H]2[C@@H]3O[C@@H](C[C@@H]13)[C@](C)(O)CC/C=C(\C)CCC[C@H]2C : 28.7 µM
C#C[C@@]1(O)[C@@H](CO)O[C@@H](n2cc(Br)c3c(N)ncnc32)[C@@H]1O : 0.0441 µM
CC(C)OP(=O)(OC(C)C)c1ncc(-c2ccc(C(F)(F)F)cc2)c(NC2CCCCCC2)n1 : > 10 µM
CCN(Cc1ccccn1)c1ccc(CO)c(Cl)c1 : 36.1 µM

Please give GI50 for each item listed below.
1. S=c1ssnc1-c1ccccn1
2. NC(=O)c1c(Br)n(C2OC(CO)C(O)C2O)c2ncnc(N)c12 (stereo unspecified)
3. Nc1nc(/C=C\c2ccc([N+](=O)[O-])s2)nc(N2CCOCC2)n1

Return:
["12.8 µM", "1.05 µM", "16.3 µM"]

###

Exercise: state measured TGI for each of the compounds provided.
# System: PC-3 prostate
# measurement_description: NCI tumour cell line growth inhibition, 48 h
Where a SMILES comes first, the peptide text is derived from it. [ ]: non-standard residue; d: D form. The star is where a group is joined. ξ: configuration not given here. ξD = NC(CC(=O)O)C(=O)O; Boc = CC(C)(C)OC(=O)*; Aib = CC(C)(N)C(=O)O; OtBu = CC(C)(C)O*

Before answering, review these 4 worked examples.
CCOC(=O)CO/N=C\C1=CC(=O)C2CC1C2(C)C (stereo not given) : > 100 µM
CCN(Cc1ccccn1)c1ccc(CO)c(Cl)c1 : > 100 µM
COC(=O)C(C)(C)NC(=O)C(C)(C)NC(=O)C(CC(=O)OC(C)(C)C)NC(=O)OC(C)(C)C (stereo not given) (Boc-[ξD](OtBu)-[Aib]-[Aib]-OMe) : > 100 µM
CN1C[C@@H](c2ccc(Cl)cc2)[C@]2(NC(=S)N(c3ccc(F)c(Cl)c3)C2=O)[C@@]12C(=O)NC1C=CC(Cl)=C[C@H]12 (stereo not given in full) : 6.42 µM

Now, please, on to the next compound.
Enquiry: Give the value of TGI reported for the following: `O=C1C(Br)=C(C2=CC(=P(c3ccccc3)(c3ccccc3)c3ccccc3)C=C2)C(=O)C(Br)=C1C1=CC(=P(c2ccccc2)(c2ccccc2)c2ccccc2)C=C1`
Return: > 100 µM

###

Exercise: state measured TGI for each of the compounds provided.
# Test system: ACHN renal
# measurement_description: NCI tumour cell line growth inhibition, 48 h

Before answering, review these 6 worked examples.
Cn1c(=O)nc2n(-c3cccc(Cl)c3)c3ccccc3nc-2c1=O : 29.8 µM
CC1(C)COP(=S)(c2ccccn2)O[C@@H]1c1ccccc1 (stereo partly specified) : > 100 µM
O=C(CSc1ncnc2nc[nH]c12)c1ccccc1 : > 100 µM
Cc1nc2c(o1)C(=Nc1ccccc1)c1ccccc1C2=Nc1ccccc1 : > 100 µM
CC1(C)Cc2c(c3ccccc3c3nc4c(nc23)c2c(c3ccccc34)OC(C)(C)C2)O1 : > 100 µM
CC1NOC(=O)C1N=Nc1ccccc1Br (stereo unspecified) : > 100 µM

Please give TGI for each item listed below.
1. COc1cc(OC)c2nc3occc3c(OC)c2c1
2. Nc1nc(/C=C\c2ccc([N+](=O)[O-])s2)nc(N2CCOCC2)n1
3. COc1ccc(-c2nc(N3CCCC3)no2)cc1
4. COP(=O)(OC)/C(=C/c1cn(C(C)=O)c2ccccc12)NC(C)=O
5. CCOC(=O)C(Br)(C(N)=O)C1(O)OC(c2ccccc2)=C(Br)C1=O (stereo unspecified)

Return:
1. > 100 µM
2. 17.7 µM
3. > 75 µM
4. > 100 µM
5. 32.3 µM
